Would you mind telling me the reported pIC50 of each entry?
# Assay system: NRAS G12C (Homo sapiens, UniProt P01111+P62937, G12C)
# Sequence (P01111 whole entry G12C): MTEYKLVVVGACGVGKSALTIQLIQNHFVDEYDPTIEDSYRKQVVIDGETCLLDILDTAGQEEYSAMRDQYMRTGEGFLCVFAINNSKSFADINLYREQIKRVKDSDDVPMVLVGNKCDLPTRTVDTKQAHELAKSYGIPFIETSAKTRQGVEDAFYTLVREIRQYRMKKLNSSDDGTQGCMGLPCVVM
# Sequence (P62937 whole entry): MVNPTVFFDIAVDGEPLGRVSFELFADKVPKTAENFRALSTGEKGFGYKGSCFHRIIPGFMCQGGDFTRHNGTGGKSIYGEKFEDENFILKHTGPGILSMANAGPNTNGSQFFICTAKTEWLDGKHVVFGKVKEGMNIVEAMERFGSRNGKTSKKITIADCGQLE
# Test summary: Disruption of BRAF RBD interaction with Ras (FRET / MOA assay, with Cyclophilin A)
# Type: biochemical
# Condition: NRAS G12C; read-out: NRAS G12C FRET data IC50
pIC50: −log10 of the molar value.

**Q:** For NRAS G12C (Homo sapiens, UniProt P01111+P62937, G12C), give pIC50 of the listed compound: CCn1c(-c2cc(N3CCN(C)CC3)cnc2[C@H](C)OC)c2c3cc(ccc31)-c1csc(n1)C[C@H](NC(=O)[C@H](C(C)C)N(C)C(=O)[C@H]1CCNC1=O)C(=O)N1CCC[C@H](N1)C(=O)OCC(C)(C)C2 (single isomer, unassigned) [Example A449]
**A:** 6.00 to 7.00

**Q:** For NRAS G12C (Homo sapiens, UniProt P01111+P62937, G12C), give pIC50 of the listed compound: CCn1c(-c2cccnc2[C@H](C)OC)c2c3cc(ccc31)-c1cccc(c1)C[C@H](NC(=O)[C@H](C(C)C)N1CC[C@]3(CCN(C(=O)C#C[C@]4(N(C)C)CCOC4)C3)C1=O)C(=O)N1CCC[C@H](N1)C(=O)OCC(C)(C)C2 [Example A559]
**A:** 7.00 to 8.00

**Q:** For NRAS G12C (Homo sapiens, UniProt P01111+P62937, G12C), give pIC50 of the listed compound: CCn1c(-c2cccnc2[C@H](C)OC)c2c3cc(ccc31)-c1cc(O)cc(c1)C[C@H](NC(=O)[C@H](C(C)C)N(C)C(=O)[C@@H]1OC[C@@H]3CCC[C@@H]31)C(=O)N1CCC[C@H](N1)C(=O)OCC(C)(C)C2 [Example A407]
**A:** 7.00 to 8.00

**Q:** For NRAS G12C (Homo sapiens, UniProt P01111+P62937, G12C), give pIC50 of the listed compound: CCn1c(-c2cccnc2[C@H](C)OC)c2c3cc(ccc31)-c1cc(O)cc(c1)C[C@H](NC(=O)[C@H](C(C)C)N(C)C(=O)[C@H]1CCN(C(=O)[C@H]3CCCN3)C1)C(=O)N1CCC[C@H](N1)C(=O)OCC(C)(C)C2 [Example A378]
**A:** 7.00 to 8.00
